target: T1, IGF1R-Fc (extracellular domain of human IGF1R aa 1-932 fused to hinge and constant regions of human IgG1) (human, UniProt P08069 31-932)
T1 construct: range 1-932; made in house by transient transfection, purified on Protein A; also called IGF-IR-Fc; not shown: hinge and constant regions of human IgG1
Measured Kd accompanies every entry in the list below.
# value in nM; strip the unit string

Examples with answers:
binder | uom | Kd
E5-GS10-I1 pegylated (designed binder, Cys of the C-terminal Cys tail conjugated to 40 kDa branched PEG) E/I tandem 10Fn3 chain: MGVSDVPRDLEVVAATPTSLLISWWAPVDRYQYYRITYGETGGNSPVQEFTVPRDVYTATISGLKPGVDYTITVYAVTDYKPHADGPHTYHESPISINYRTEIDKGSGSGSGSGSGSGSGSGSGSVSDVPRDLEVVAATPTSLLISWSARLKVARYYRITYGETGGNSPVQEFTVPKNVYTATISGLKPGVDYTITVYAVTRFRDYQPISINYRTEIDKPCQHHHHHH | nM | 1.16
E105-GS10-I1 pegylated (designed binder, Cys of the C-terminal Cys tail conjugated to 40 kDa branched PEG) E/I tandem 10Fn3 chain: MGVSDVPRDLEVVAATPTSLLISWDAPTSRYQYYRITYGETGGNSPVQEFTVPGGLSTATISGLKPGVDYTITVYAVTDYKPHADGPHTYHESPISINYRTEIDKGSGSGSGSGSGSGSGSGSGSVSDVPRDLEVVAATPTSLLISWSARLKVARYYRITYGETGGNSPVQEFTVPKNVYTATISGLKPGVDYTITVYAVTRFRDYQPISINYRTEIDKPCQHHHHHH | nM | 1.35
E90-GS10-I1 pegylated (designed binder, Cys of the C-terminal Cys tail conjugated to 40 kDa branched PEG) E/I tandem 10Fn3 chain: MGVSDVPRDLEVVAATPTSLLISWYWEGLPYQYYRITYGETGGNSPVQEFTVPRDVNTATISGLKPGVDYTITVYAVTDWYNPDTHEYIYHTIPISINYRTEIDKGSGSGSGSGSGSGSGSGSGSVSDVPRDLEVVAATPTSLLISWSARLKVARYYRITYGETGGNSPVQEFTVPKNVYTATISGLKPGVDYTITVYAVTRFRDYQPISINYRTEIDKPCQHHHHHH | nM | 1.5

Input line: Could you share which Kd value was measured for E4-GS10-I1 pegylated, His-tagged (designed binder, 40 kDa branched PEG on the Cys of the C-terminal Cys tail, also called E4-GS10-I1 (with Peg)) MGVSDVPRDLEVVAATPTSLLISWHERDGSRQYYRITYGETGGNSPVQEFTVPGGVRTATISGLKPGVDYTITVYAVTDYFNPTTHEYIYQTTPISINYRTEIDKGSGSGSGSGSGSGSGSGSGSVSDVPRDLEVVAATPTSLLISWSARLKVARYYRITYGETGGNSPVQEFTVPKNVYTATISGLKPGVDYTITVYAVTRFRDYQPISINYRTEIDKPCQHHHHHH ?
Output line: 0.77
